# Lookup of reported MIC keyed by entry
- Tested on: Klebsiella pneumoniae
- measurement.protocol: Antibacterial activity against Klebsiella pneumoniae MTCC 432 after 16 hr by cup-plate method
- Assay type: functional
- condition.summary: MTCC 432, 16 h
measure.name: MIC (µg/mL)

molecule=CC(=O)Nc1ccc(Br)cc1Sc1ncccc1[N+](=O)[O-] measure_name=MIC unit_text=µg/mL assay_result=6.25
molecule=Fc1ccc2c(c1)Sc1cccnc1N2CCCCN1c2ccc(F)cc2Sc2cccnc21 measure_name=MIC unit_text=µg/mL assay_result=50
molecule=Brc1ccc2c(c1)Sc1cccnc1N2CCCCN1c2ccc(Br)cc2Sc2cccnc21 measure_name=MIC unit_text=µg/mL assay_result=50
molecule=CC(=O)Nc1ccc(Cl)cc1Sc1ncccc1[N+](=O)[O-] measure_name=MIC unit_text=µg/mL assay_result=6.25
molecule="O=C(O)c1cn(C2CC2)c2cc(N3CCNCC3)c(F)cc2c1=O [CIPROFLOXACIN]" measure_name=MIC unit_text=µg/mL assay_result=6.25

====

- System: Bacillus subtilis
- measurement.protocol: Antibacterial activity against Bacillus subtilis MTCC 441 at 100 ug/ml after 16 to 18 hr by cup-plate method
- Type: functional
- condition.summary: read-out: IZ
measure.name: zone of inhibition at 100 µg/mL (mm)

compound=CC(=O)Nc1ccc(Cl)cc1Sc1ncccc1[N+](=O)[O-] assay_result=12
compound=Brc1ccc2c(c1)Sc1cccnc1N2CCCCN1c2ccc(Br)cc2Sc2cccnc21 assay_result=11
compound=Fc1ccc2c(c1)Sc1cccnc1N2CCCCN1c2ccc(F)cc2Sc2cccnc21 assay_result=12
compound=Brc1ccc2c(c1)Sc1cccnc1N2CCCCCCN1c2ccc(Br)cc2Sc2cccnc21 assay_result=13
compound=CC(=O)Nc1ccc(Br)cc1Sc1ncccc1[N+](=O)[O-] assay_result=12
compound=Brc1ccc2c(c1)Sc1cccnc1N2C/C=C/CN1c2ccc(Br)cc2Sc2cccnc21 assay_result=11
compound=Clc1ccc2c(c1)Sc1cccnc1N2CCCCN1c2ccc(Cl)cc2Sc2cccnc21 assay_result=11
compound=CC(=O)Nc1ccccc1Sc1ncccc1[N+](=O)[O-] assay_result=12
compound="O=C(O)c1cn(C2CC2)c2cc(N3CCNCC3)c(F)cc2c1=O [CIPROFLOXACIN]" assay_result=18
compound=c1ccc2c(c1)Sc1cccnc1N2CCCCN1c2ccccc2Sc2cccnc21 assay_result=10
compound=CC(=O)Nc1ccc(F)cc1Sc1ncccc1[N+](=O)[O-] assay_result=12
compound=Clc1ccc2c(c1)Sc1cccnc1N2CCCCCCN1c2ccc(Cl)cc2Sc2cccnc21 assay_result=12
compound=Fc1ccc2c(c1)Sc1cccnc1N2CCCCCCN1c2ccc(F)cc2Sc2cccnc21 assay_result=12
compound=C(=C\CN1c2ccccc2Sc2cccnc21)/CN1c2ccccc2Sc2cccnc21 assay_result=10
compound=c1ccc2c(c1)Sc1cccnc1N2CCCCCCN1c2ccccc2Sc2cccnc21 assay_result=12

====

- System: Staphylococcus epidermidis
- measurement.protocol: Antibacterial activity against Staphylococcus epidermidis MTCC 435 at 100 ug/ml after 16 to 18 hr by cup-plate method
- Format: functional
- condition.summary: read-out: IZ
# Lookup of reported zone of inhibition at 100 µg/mL keyed by entry
measure.name: zone of inhibition at 100 µg/mL (mm)

structure_as_smiles=Brc1ccc2c(c1)Sc1cccnc1N2CCCCN1c2ccc(Br)cc2Sc2cccnc21 assay_result=11
structure_as_smiles=Clc1ccc2c(c1)Sc1cccnc1N2CCCCN1c2ccc(Cl)cc2Sc2cccnc21 assay_result=12
structure_as_smiles=Clc1ccc2c(c1)Sc1cccnc1N2CCCCCCN1c2ccc(Cl)cc2Sc2cccnc21 assay_result=10
structure_as_smiles=Brc1ccc2c(c1)Sc1cccnc1N2CCCCCCN1c2ccc(Br)cc2Sc2cccnc21 assay_result=14
structure_as_smiles=CC(=O)Nc1ccccc1Sc1ncccc1[N+](=O)[O-] assay_result=11

Ref: ChEMBL document CHEMBL3046749
